pEC50 overview
Target: T1, human tissue factor (TF) on MDA-MB-231, NCI-H358 and HCT116 cells (human, UniProt P13726 33-295)
T1 construct: whole, on cells; also called TF antigen; CD142
Experiment: flow cytometry on MDA-MB-231 cells
pEC50: −log10 of the molar value.
Measure Name: pEC50

hu10H10-36 (antibody, V domains shown, H10+L3; Full-length IgG) VH: EVQLVQSGSELKKPGASVKVSCKASGYTFIEYWIEWVKQRPGQGLEWMGDILPGSGSTNYNENFKGRATFSADTSVSTAYLQISSLKAEDTAVYYCARSGYYGNSGFAYWGQGTLVTVSS VL: DIQMTQSPSSLSASVGDRVTITCKSSQSLLSSGNQKNYLTWYQQKPGKAPKLLIYWASTREEGVPSRFSGSGSGTDFTLTISSLQPEDFATYYCQNDYTYPLTFGQGTKLEIK : 8.67
hu10H10-38 (antibody, V domains shown, H12+L3; Full-length IgG) VH: EVQLVQSGSELKKPGASVKVSCKASGYTFITYWIEWVKQRPGQGLEWMGDILPGHGSTNYNENFKGRATFSADTSVSTAYLQISSLKAEDTAVYYCARSGYYGNSGFAYWGQGTLVTVSS VL: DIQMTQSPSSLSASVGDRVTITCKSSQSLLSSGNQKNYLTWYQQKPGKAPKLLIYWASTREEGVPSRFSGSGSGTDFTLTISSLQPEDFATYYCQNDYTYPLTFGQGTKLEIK : 8.94
hu310-2 (antibody, human IgG1, kappa, V domains shown) VH: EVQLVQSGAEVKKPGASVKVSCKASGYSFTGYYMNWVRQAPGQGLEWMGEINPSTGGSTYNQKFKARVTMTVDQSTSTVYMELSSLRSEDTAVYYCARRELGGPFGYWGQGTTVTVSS VL: SIVMTQSPDSLAVSLGERATINCKASQSVSNGIAWYQQKPGQSPKLLIYFASNRYTGVPDRFSGSGYGTDFTLTISSLQAEDVAVYYCQQDYSSPWTFGGGTKVEIKR : 8.88
hu67-14 (antibody, human IgG1, kappa, V domains shown) VH: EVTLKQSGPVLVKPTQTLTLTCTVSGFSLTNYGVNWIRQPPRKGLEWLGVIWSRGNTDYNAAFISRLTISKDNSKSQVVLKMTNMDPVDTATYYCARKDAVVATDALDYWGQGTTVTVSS VL: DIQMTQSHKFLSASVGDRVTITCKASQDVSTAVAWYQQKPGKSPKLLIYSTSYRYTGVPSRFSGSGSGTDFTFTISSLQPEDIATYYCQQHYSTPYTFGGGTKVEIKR : 7.72
hu310-9 (antibody, human IgG1, kappa, V domains shown) VH: EVQLVQSGAEVKKPGASVKVSCKASGYSFTGYYMNWVRQAPGQGLEWMGEINPSTGGSTYNQKFKARVTLTVDQSTNTAYMELSSLRSEDTAVYYCARRELGGPFGYWGQGTTVTVSS VL: DIVMTQSPDSLAVSLGERATINCKASQSVSNGIAWYQQKPGQPPKLLIYFASNRYTGVPDRFSGSGSGTDFTLTISSLQAEDVAVYYCQQDYSSPWTFGGGTKVEIKR : 8.71
hu310-4 (antibody, human IgG1, kappa, V domains shown) VH: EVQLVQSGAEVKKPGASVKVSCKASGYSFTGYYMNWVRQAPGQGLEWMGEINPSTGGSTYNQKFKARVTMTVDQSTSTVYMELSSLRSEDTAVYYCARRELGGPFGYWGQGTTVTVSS VL: DIQMTQSPSSLSASVGDRVTITCKASQSVSNGIAWYQQKPGKAPKLLIYFASNRYTGVPSRFSGSGSGTDFTFTISSLQPEDIATYYCQQDYSSPWTFGGGTKVEIKR : 8.68
hu10H10-33 (antibody, V domains shown, H7+L3; Full-length IgG) VH: EVQLVQSGSELKKPGASVKVSCKASGYTFITYWIEWVKQRPGQGLEWMGDILPGSGSTNYNENFKGRATFSADTSVSTAYLQISSLKAEDTAVYYCARSGYYGNSGFAYWGQGTLVTVSS VL: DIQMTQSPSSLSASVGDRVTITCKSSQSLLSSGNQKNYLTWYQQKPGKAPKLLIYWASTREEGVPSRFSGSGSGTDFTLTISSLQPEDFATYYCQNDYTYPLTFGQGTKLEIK : 8.96
hu10H10-35 (antibody, V domains shown, H9+L3; Full-length IgG) VH: EVQLVQSGSELKKPGASVKVSCKASGYTFRTYWIEWVKQRPGQGLEWMGDILPGSGSTNYNENFKGRATFSADTSVSTAYLQISSLKAEDTAVYYCARSGYYGNSGFAYWGQGTLVTVSS VL: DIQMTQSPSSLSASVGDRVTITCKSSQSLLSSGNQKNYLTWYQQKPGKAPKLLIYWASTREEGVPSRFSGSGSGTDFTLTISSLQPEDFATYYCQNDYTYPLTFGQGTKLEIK : 8.96
hu10H10-29 (antibody, V domains shown, H11+L1; Full-length IgG) VH: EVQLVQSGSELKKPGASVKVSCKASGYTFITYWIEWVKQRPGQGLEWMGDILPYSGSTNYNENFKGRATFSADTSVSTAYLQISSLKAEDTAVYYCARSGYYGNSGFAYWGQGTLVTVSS VL: DIQMTQSPSSLSASVGDRVTITCKSSQSLLSSGNQKNYLTWYQQKPGKAPKLLIYWASTRESGVPSRFSGSGSGTDFTLTISSLQPEDFATYYCQNDYTYPLTFGQGTKLEIK : 8.96
hu67Y116 (antibody, human IgG1, kappa, V domains shown) VH: EVQLQESGPGLVKPSQTLSLTCTVSGFSLTNYGVNWIRQSPGKGLEWIGVIWSRGNTDYNAAFKSRVTISKDTSKNQVSLKLSSVTAADTAVYYCARKDAIVATDALDYWGQGTTVTVSS VL: DIQMTQSPSSLSASVGDRVTITCKASQDVQTAVAWYQQKPGKAPKLLIYSTHYRYTGVPSRFSGSGSGTDFTFTISSLQPEDIATYYCLQSYTLPFSFGGGTKVEIKR : 8.31
